- Test system: c-MYC (DNA, G4) GGGGAGGGTGGGGAGGGTGGGGAAGG
- protocol: thiazole orange displacement (G4-FID)
- measurementConditions: 100 mM KCl; 10 mM sodium cacodylate pH 7.3, 18 °C; thiazole orange displaced; from DC50, TO Kb 1.50 × 10^6
Listed here are compounds together with their documented Kb.

Some solved entries appear below for comparison.
1) COc1cc(/C=C/C(=O)CC(=O)/C=C/c2ccc(O)c(OC)c2)ccc1O ... 0.26 ± 0.02 × 10^6 M^-1
2) C[n+]1cc2c3c(ccc2c2ccc4cc5c(cc4c21)OCO5)OCO3 ... 7.76 ± 0.53 × 10^6 M^-1

Task: Given the compound CC1=CC(=O)C(C(C)C)=CC1=O , what is its reported Kb?
Output: 0.63 ± 0.04 × 10^6 M^-1

Task: Suppose we examine the compound O=C(O[C@@H]1Cc2c(O)cc(O)cc2O[C@@H]1c1cc(O)c(O)c(O)c1)c1cc(O)c(O)c(O)c1 ; what Kb value has been reported?
Output: 2.94 ± 0.20 × 10^6 M^-1

Task: Bench note: what Kb did O=c1c(O)c(-c2ccc(O)c(O)c2)oc2cc(O)cc(O)c12 show?
Output: 5.33 ± 0.36 × 10^6 M^-1

Task: Bench note: what Kb did O=c1c(O)c(-c2ccc(O)cc2)oc2cc(O)cc(O)c12 show?
Output: 1.16 ± 0.08 × 10^6 M^-1

----------
- System: Tel (DNA, G4) GGGTTAGGGTTAGGGTTAGGGTTA
- protocol: thiazole orange displacement (G4-FID)
- measurementConditions: 100 mM KCl; 10 mM sodium cacodylate pH 7.3, 18 °C; 1 µM thiazole orange displaced, 0.5 µM DNA
reportedEndpoint: DC50 (µM)

Consider the worked cases shown below.
1) O=c1c(O)c(-c2ccc(O)cc2)oc2cc(O)cc(O)c12 ... 2.00
2) O=C(O[C@@H]1Cc2c(O)cc(O)cc2O[C@@H]1c1cc(O)c(O)c(O)c1)c1cc(O)c(O)c(O)c1 ... 2.00

P = CC1=CC(=O)C(C(C)C)=CC1=O
Q = O=c1c(O)c(-c2ccc(O)c(O)c2)oc2cc(O)cc(O)c12
Task: Returns: the label, P or Q , whose recorded DC50 is the lower number. Refer to your chosen entry by its label in the reply.
Output: Q
